// data source = patent US6972319B1

Quick reference: R3 Selectivity of the listed items.
Molecular target: T1, PACAP-R3 (human, UniProt P41587 24-438)
T1 sequence (looked up): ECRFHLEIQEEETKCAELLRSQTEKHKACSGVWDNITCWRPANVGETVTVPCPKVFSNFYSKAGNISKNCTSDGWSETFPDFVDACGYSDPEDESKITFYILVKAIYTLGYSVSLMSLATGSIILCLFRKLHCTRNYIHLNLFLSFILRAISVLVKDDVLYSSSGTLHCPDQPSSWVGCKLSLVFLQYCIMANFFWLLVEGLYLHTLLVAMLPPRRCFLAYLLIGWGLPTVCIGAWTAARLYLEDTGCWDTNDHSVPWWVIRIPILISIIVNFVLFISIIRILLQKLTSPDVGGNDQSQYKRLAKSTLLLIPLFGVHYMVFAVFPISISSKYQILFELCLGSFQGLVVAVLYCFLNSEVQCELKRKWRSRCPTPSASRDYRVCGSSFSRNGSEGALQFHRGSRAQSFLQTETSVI
Assay: cell-based or functional assay
Answer using only a numeral; do not append any unit.

Solved cases below.
BINDER | R3 Selectivity
HSDAVFTDNYTRLRKQVAVKKYLQSILKK [R3P89] | 15
HSDAVFTDNYTRLRKQVAVKKYLQSIKKK [R3P81] | 100

Alright, here's another binder for you.
Respond only with R3 Selectivity recorded for HSDAVFTDNYTRLRKQMAVKKYLNSIKKKR [R3P57] 190
